assay: PAMPA (parallel artificial membrane permeability assay); format: in vitro ADME; conditions: PAMPA; membrane permeation rate (Pe); 50 mM MOPSO buffer pH 6.5 with 5.0% glycocholic acid, 37° C., 18 hours; read-out: iPAMPA Pe
Starred links: 1 amine or outer side, 2 acyl side, 3 side chain; linkers in the order of their positions; H or OH if unused. Positions of bridges follow the written chain, without caps; N, C: chain ends. Non-standard residues stand in square brackets, D forms with d. Residues, ends and D or L forms follow the SMILES beside them. *: point of attachment. NMeF = CN[C@@H](Cc1ccccc1)C(=O)O; NMeGABA = CN(CCCC(=O)[*:2])[*:1]; NMeI = CC[C@H](C)[C@H](NC)C(=O)O; hPhe = N[C@@H](CCc1ccccc1)C(=O)O; NMeβAla = CN(CCC(=O)[*:2])[*:1]; NMeL = CN[C@@H](CC(C)C)C(=O)O; NMeV = CN[C@H](C(=O)O)C(C)C; NMeA = CN[C@@H](C)C(=O)O; Piperidide = C1CCN(*)CC1; dNMeA = CN[C@H](C)C(=O)O; β3hA = C[C@H](N)CC(=O)O; Sar = CNCC(=O)O; tBu = CC(C)(C)*
# label = Met if Papp at 18 hours, 50 µM < 20 ×10⁻⁶ cm/s else Not met

compound: CC[C@H](C)[C@H]1C(=O)N[C@H](C(=O)N2CCCCC2)CC(=O)N[C@H](C(C)C)C(=O)N[C@@H]([C@@H](C)O)C(=O)N(C)[C@@H](C)C(=O)N(C)[C@@H](C(C)C)C(=O)N[C@@H](Cc2ccccc2)C(=O)N(C)[C@@H](CC(C)C)C(=O)N[C@@H](C)C(=O)N(C)CC(=O)N1C [DP-253] ([dV]T[NMeA][NMeV]F[NMeL]A[Sar][NMeI]D-Piperidide; lactam N-10)
group.label: Met
//
compound: CC[C@H](C)[C@@H]1NC(=O)[C@H](CC(C)C)NC(=O)[C@H](C(C)C)NC(=O)[C@H](CC(C)C)N(C)C(=O)[C@H](CC(C)C)NC(=O)[C@H](CCc2ccccc2)NC(=O)[C@H]([C@@H](C)O)NC(=O)[C@H](C)N(C)C(=O)[C@H](CC(C)C)NC(=O)[C@H](C)N(C)C(=O)C[C@@H](C(=O)N2CCCCC2)NC1=O [DP-728] ([NMeA]L[NMeA]T[hPhe]L[NMeL]VLID-Piperidide; lactam N-11)
group.label: Met
//
compound: CC(C)C[C@H]1C(=O)N(C)[C@@H](C)C(=O)N[C@H](C(=O)N(C)[C@@H](Cc2ccccc2)C(=O)N[C@@H](C)C(=O)N2CCCCC2)CC(=O)N(C)[C@@H](C)C(=O)N(C)[C@@H](C)C(=O)N(C)[C@@H](Cc2ccccc2)C(=O)N[C@@H]([C@@H](C)O)C(=O)N(C)[C@@H](C)C(=O)N(C)[C@@H](Cc2ccccc2)C(=O)N[C@@H](C)C(=O)N1C [DP-377] ([NMeA][NMeA][NMeF]T[NMeA][NMeF]A[NMeL][NMeA]D[NMeF]A-Piperidide; lactam N-10)
group.label: Not met
//
compound: CC[C@H](C)[C@@H]1NC(=O)CN(C)C(=O)[C@H]([C@@H](C)O)NC(=O)[C@H](C(C)C)N(C)C(=O)[C@@H](C)N(C)C(=O)C[C@@H](C(=O)N2CCCCC2)NC(=O)[C@H](CC(C)C)NC(=O)[C@H](Cc2ccccc2)N(C)C(=O)[C@H](CC(C)C)N(C)C(=O)[C@H](C)N(C)C1=O [DP-433] ([dNMeA][NMeV]T[Sar]I[NMeA][NMeL][NMeF]LD-Piperidide; lactam N-10)
group.label: Not met
//
compound: CC[C@H](C)[C@@H]1NC(=O)[C@H](CC(C)C)N(C)C(=O)CN(C)C(=O)[C@H](Cc2ccccc2)NC(=O)[C@H](C(C)C)N(C)C(=O)[C@H](C)N(C)C(=O)[C@H]([C@@H](C)O)NC(=O)[C@H](C)N(C)C(=O)C[C@@H](C(=O)N(C)[C@@H](CC(C)C)C(=O)N[C@H](C(=O)N(C)[C@@H](CC(C)C)C(=O)N[C@@H](C)C(=O)N2CCCCC2)[C@@H](C)O)NC(=O)[C@H](C)NC1=O [DP-581] ([NMeA]T[NMeA][NMeV]F[Sar][NMeL]IAD[NMeL]T[NMeL]A-Piperidide; lactam N-10)
group.label: Met
//
compound: CC[C@H](C)[C@@H]1NC(=O)[C@H](CC(C)C)N(C)C(=O)[C@H](CC(C)C)N(C)C(=O)[C@H](C)N(C)C(=O)[C@H]([C@@H](C)O)NC(=O)[C@H](C(C)C)N(C)C(=O)[C@H](Cc2ccccc2)NC(=O)CN(C)C(=O)[C@H](C)N(C)C(=O)C[C@@H](C(=O)N2CCCCC2)NC1=O [DP-439] ([NMeA][Sar]F[NMeV]T[NMeA][NMeL][NMeL]ID-Piperidide; lactam N-10)
group.label: Not met
//
compound: CC[C@H](C)[C@H]1C(=O)N(C)[C@@H](C)C(=O)N(C)[C@@H](CC(C)C)C(=O)N[C@@H](COC(C)(C)C)C(=O)N(C)[C@@H](CC(C)C)C(=O)N[C@@H](C)CC(=O)N(C)[C@@H](C)C(=O)N(C)[C@@H](Cc2ccccc2)C(=O)N[C@@H](CC(C)C)C(=O)N(C)[C@@H](CC(C)C)C(=O)N[C@@H]([C@@H](C)O)C(=O)N1C [DP-817] (cyclo(L[NMeL]T[NMeI][NMeA][NMeL]S(tBu)[NMeL][β3hA][NMeA][NMeF]))
group.label: Not met
//
compound: CC[C@H](C)[C@H](NC(=O)[C@@H](NC(=O)[C@@H]1CC(=O)N(C)CCC(=O)N[C@@H](Cc2ccccc2)C(=O)N(C)[C@@H](Cc2ccccc2)C(=O)N(C)[C@@H](CC(C)C)C(=O)N[C@@H]([C@@H](C)O)C(=O)N(C)[C@@H](C)C(=O)N(C)[C@@H](CC(C)C)C(=O)N[C@@H](C(C)C)C(=O)N(C)[C@@H](CC(C)C)C(=O)N[C@@H](COC(C)(C)C)C(=O)N(C)[C@@H](CC(C)C)C(=O)N1)C(C)C)C(=O)N1CCCCC1 [DP-954] ([NMeβAla]F[NMeF][NMeL]T[NMeA][NMeL]V[NMeL]S(tBu)[NMeL]DVI-Piperidide; lactam N-12)
group.label: Met
//
compound: CC[C@H](C)[C@@H]1NC(=O)[C@H](C)N(C)C(=O)[C@H]([C@@H](C)O)NC(=O)[C@H](Cc2ccccc2)N(C)C(=O)[C@H](CC(C)C)N(C)C(=O)CCCN(C)C(=O)C[C@@H](C(=O)N(C)[C@@H](Cc2ccccc2)C(=O)N[C@@H](C)C(=O)N2CCCCC2)NC(=O)[C@H](C(C)C)N(C)C(=O)[C@H](CC(C)C)N(C)C1=O [DP-384] ([NMeGABA][NMeL][NMeF]T[NMeA]I[NMeL][NMeV]D[NMeF]A-Piperidide; lactam N-9)
group.label: Not met
